# MIC measurements, system: Sarcina lutea ATCC 9341

# lookup: MIC of CCC1OC(=O)CC(O)C(C)C(OC2OC(C)C(OC3CC(C)(O)C(OC(=O)CC(C)C)C(C)O3)C(N(C)C)C2O)C(CC=O)CC(C)C(=O)/C=C/C(C)=C/C1COC1OC(C)C(O)C(OC)C1OC (centres unmarked)
< 0.12 µg/mL

# lookup: MIC of CCCC(=O)OC1C(C)OC(OC2C(C)OC(OC3C(CC=O)CC(C)C(=O)C=CC(C)=CC(COC4OC(C)C(O)C(OC)C4OC)C(CC)OC(=O)CC(OC(=O)CC)C3C)C(O)C2N(C)C)CC1(C)O (centres unmarked)
< 0.12 µg/mL

* * *

endpoint: MIC (mg/L)
Response body: numeric value in mg/L, unit text excluded.

API: value(readout= MIC, system= Sarcina lutea ATCC 9341, query= `CC[C@H]1OC(=O)C[C@@H](O)[C@H](C)[C@@H](O[C@@H]2O[C@H](C)[C@@H](O[C@H]3C[C@@](C)(O)[C@@H](O)[C@H](C)O3)[C@H](N(C)C)[C@H]2O)[C@@H](CC=O)C[C@@H](C)C(=O)/C=C/C(C)=C/[C@@H]1CO[C@@H]1O[C@H](C)[C@@H](O)[C@@H](OC)[C@H]1OC` )
0.12

API: value(readout= MIC, system= Sarcina lutea ATCC 9341, query= CCC(=O)OC1CC(=O)OC(CC)C(COC2OC(C)C(O)C(OC)C2OC)C=C(C)C=CC(=O)C(C)CC(CC=O)C(OC2OC(C)C(OC3CC(C)(O)C(OC(=O)CC(C)C)C(C)O3)C(N(C)C)C2O)C1C (stereo not shown) )
0.25

API: value(readout= MIC, system= Sarcina lutea ATCC 9341, query= CCCC(=O)OC1C(C)OC(OC2C(C)OC(OC3C(CC=O)CC(C)C(=O)/C=C/C(C)=C/C(COC4OC(C)C(O)C(OC)C4OC)C(CC)OC(=O)CC(O)C3C)C(O)C2N(C)C)CC1(C)O (stereo not shown) )
0.25

API: value(readout= MIC, system= Sarcina lutea ATCC 9341, query= CCC1OC(=O)CC(OC(C)=O)C(C)C(OC2OC(C)C(OC3CC(C)(O)C(OC(=O)CC(C)C)C(C)O3)C(N(C)C)C2O)C(CC=O)CC(C)C(=O)C=CC(C)=CC1COC1OC(C)C(O)C(OC)C1OC (stereo not shown) )
0.25

* * *

# MIC measurements, system: Sarcina lutea ATCC 9341

# lookup: MIC of CCCC(=O)OC1C(C)OC(OC2C(C)OC(OC3C(CC=O)CC(C)C(=O)C=CC(C)=CC(COC4OC(C)C(O)C(OC)C4OC)C(CC)OC(=O)CC(OC(C)=O)C3C)C(O)C2N(C)C)CC1(C)O (stereo not drawn)
< 0.12 µg/mL

# lookup: MIC of CCC1OC(=O)CC(OC(C)=O)C(C)C(OC2OC(C)C(OC3CC(C)(O)C(O)C(C)O3)C(N(C)C)C2O)C(CC=O)CC(C)C(=O)/C=C/C(C)=C/C1COC1OC(C)C(O)C(OC)C1OC (stereo not drawn)
< 0.12 µg/mL

# lookup: MIC of CCC(=O)OC1CC(=O)OC(CC)C(COC2OC(C)C(O)C(OC)C2OC)/C=C(C)/C=C/C(=O)C(C)CC(CC=O)C(OC2OC(C)C(OC3CC(C)(O)C(O)C(C)O3)C(N(C)C)C2O)C1C (stereo not drawn)
< 0.12 µg/mL
